Data provenance: patent US20100286215A1

# ASSAYED_SYSTEM: Recombinant human LTC4 synthase (Homo sapiens, UniProt Q16873)
# Construct: made in house; host or cells: Pichia pastoris ('Piccia pastoralis' [sic])
# Sequence (Q16873 whole entry): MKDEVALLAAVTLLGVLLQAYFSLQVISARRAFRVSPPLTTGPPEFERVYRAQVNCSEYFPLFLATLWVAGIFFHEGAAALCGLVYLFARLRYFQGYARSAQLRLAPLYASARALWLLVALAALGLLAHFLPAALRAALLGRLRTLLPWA
# TEST: LTC4 synthase assay (conversion of LTA4 methyl ester to LTC4 methyl ester, HPLC)
# Format: biochemical
# TEST_CONDITIONS: inhibitor concentration 10 μM; read-out: Percantage Inhibition at 10 μM (unless specified otherwise)
Item-by-item account of inhibition at 10 µM
ENDPOINT_LABEL: inhibition at 10 µM (%)

record_smiles=O=C(c1ccc(Nc2ccc(Cl)cn2)cc1)c1ccc(Nc2ccc(F)c(F)c2)c(C(=O)O)c1 endpoint_label="inhibition at 10 µM" observed=84
record_smiles=O=C(c1ccc(NC(=O)c2ccccc2Cl)cc1)c1ccc(Nc2ccc(F)c(F)c2)c(C(=O)O)c1 endpoint_label="inhibition at 10 µM" observed=97
record_smiles=CN(c1ccc(F)c(F)c1)c1ccc(C(=O)c2ccc(Nc3ccc(Cl)cc3)cc2)cc1C(=O)O endpoint_label="inhibition at 10 µM" observed=75
record_smiles=CN(c1ccc(Cl)cc1)c1ccc(C(=O)c2ccc(N(C)c3ccc(Cl)cc3)c(C(=O)O)c2)cc1C(=O)O endpoint_label="inhibition at 10 µM" observed=82
